Tested Target: PKA RIIα (full-length) (mouse, UniProt P12367)
Sequence (P12367 2-401): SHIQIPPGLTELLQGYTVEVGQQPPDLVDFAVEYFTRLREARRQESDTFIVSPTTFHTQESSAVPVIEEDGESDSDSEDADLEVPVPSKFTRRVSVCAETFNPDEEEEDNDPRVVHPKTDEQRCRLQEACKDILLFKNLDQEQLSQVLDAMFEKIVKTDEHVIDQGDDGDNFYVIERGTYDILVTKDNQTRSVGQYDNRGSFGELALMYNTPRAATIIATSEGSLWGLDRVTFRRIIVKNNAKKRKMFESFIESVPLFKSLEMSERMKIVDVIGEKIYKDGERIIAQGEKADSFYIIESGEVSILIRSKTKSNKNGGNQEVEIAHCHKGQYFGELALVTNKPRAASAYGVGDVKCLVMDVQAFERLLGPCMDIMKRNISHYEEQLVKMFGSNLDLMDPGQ
Method Notes: FP
Ends that are not written are not given here.
Measured Endpoint: Kd (nM)

• VQGNTDEAQEELLWKIAKMIVSDVMQQC (also: fluorescently labeled) [AKB(RII)] = 2.7

P. VQGNTDEAQEELAWKIAKMIVSDVMQQC(tetramethylrhodamine) [AKB(dual) WT]
Q. FEELAWKIAKMIWSDVFQQC [AKB(RI) PV-38]
Lookup: Select one: P or Q . Criterion: greater recorded Kd. Reply briefly: the label of your chosen item.
Found: Q
(Q: 456 nM, P: 2.2 nM)
